Test system: RARa:RXR (NR concentration 270 nM, RXRa partner concentration 90 nM)
procedure_summary: PBM binding z-score (relative to random genomic background probes); higher = stronger binding; sequences stand for … in GC…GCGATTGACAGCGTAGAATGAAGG
Listed here: items and their measured PBM binding z-score.
observed_property: PBM binding z-score

> print(dat)
                              sequence  measured.number
 1  CGTCCAAGGTCAGCAGGTCAGTGCAAGCGACGTG             4.87
 2  GGAACGAGGGCAAAGTTGATAGCGTCTGTCGACG              1.7
 3  TCTCGGAGGACACGAAAGCTCAGAGCTCGACATC           -0.157
 4  CCGACTGGGGCAAGGTTACCATCACGCACAGCCA            0.822
 5  CCTACTGGGCCATCAGGTCACTGATATCAACGTT             1.94
 6  CGTGCAAGGTCAATGCTAGGTCAGTGAAAGCATT             6.46
 7  CCTTACGGGTCACGAGGTTACAGCACGACGAGCG             6.67
 8  TGATTGAGGTTAAAGATCAGGGAACGTGGCGTCG             2.95
 9  TGAATGAGGTTAAAGATAAGGGAACGTGGCGTCG             2.09
10  ATCTCAAGGTAAAGATAGTTCAGTGAATGCAAAT            0.797
11  CCGAGTAGGTAATGGGGCATTCAGGCAACGGTGA           -0.249
12  TCTAGCAGGCCAGAGGGTCACTGAAGAGGTACGG             2.29

---

Test system: RARb homodimer (NR concentration 270 nM)
procedure_summary: PBM binding z-score (relative to random genomic background probes); higher = stronger binding; sequences stand for … in GC…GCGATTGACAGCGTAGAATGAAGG
Label N if PBM binding z-score falls below 2; label Y in every other case.

> print(dat)
                              sequence  group.label
 1  CCGACTGGGGCAGAAAGGTTATCATACCATCCGG            N
 2  TCTGCTAGGTCAGTTGGTCAGCAAACGAGCTGCC            Y
 3  TCAGACCGGTGAAGGTAACTCAGGTACGCAGTCG            N
 4  CGAACTAGGTCAGAATAGGACAGTGAAGGATGAT            Y
 5  TAGCCTAGGTAATGGGCCAGTATACCACGCGAAC            N
 6  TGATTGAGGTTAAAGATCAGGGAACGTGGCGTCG            N
 7  TCATCTAGGTAATACAGGTGAAAGTCGGCATCTA            N
 8  AGAATGAGGGTATACGTAGATCAGGGAAGAAAGT            N
 9  TCCAGTTGGTCACGGAGGTCACACACGACGGGTA            Y
10  TATATTAGTTGATTAGGGCAACCGAAACAGCGGA            N
11  GCTACTTGGTCAGTAAAAGGTCACACACCGGTCG            Y
12  AGAACGAGGGCAATGGGTTGATAGCACGGGTGGC            N
13  CAAACTAGGACAAGAGGTCAAAGTCCGCTTCCCG            Y
14  ACAGACAGGCGATGAAGGTAACTCAGGCTATCAT            N
15  TAGACTAGGTCATGCGGGCCAGTATAGTGTCGGC            Y
16  ATCGAAAGGTCGACGTGAGTATAGAGAAAGGGAA            Y
17  CCTACTGGGCCAAGATCATTGATCAGTCAAAGCA            N
18  ACTAGCAGGCCAAGGATCACTCAAGATTAGTCCG            N
19  GCTGCTAGGTCAGGTTGGTCAGCTACCGGGTACG            Y
20  AGAACGAGGGCAATGAGTTGATCGCACGGGTGGC            N
21  CTCGAAAGGTCGTGCTCAGGTGTGTATACCAAAC            Y
22  TTACCAAGGTGAGCTGAGGTAGTTGATCCAACTC            N
23  TCTTGTAGACCAAGCAGGTTAAGAAAGCCTGAGT            N
24  CGGACTGGGGCATAAGGTTACCATAAGCCAGCCC            N
25  TCGAGTAGGTTAGTCGGGGCATGCAGCCAACATA            N
26  CAAACTCGGTCAAGAGGTCAAAGTCCGCTTCCCG            Y

---

Tested on: PXR:RXRa (NR concentration 270 nM, RXRa partner concentration 90 nM)
procedure_summary: PBM binding z-score (relative to random genomic background probes); higher = stronger binding; sequences stand for … in GC…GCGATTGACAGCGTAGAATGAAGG
observed_property: PBM binding z-score

> print(dat)
                              sequence  measured.number
 1  CCTTACGGGTCAAGGGTATAGCACGGGTGGTACG              2.9
 2  TTACCAACGTGAGCTGAGGTCGTTGATCCAACTC             1.52
 3  TCTATTAGTTGAATGGCAACCGACGAGTCCGTTT            0.794
 4  TCATATAGGTAAATGCTAGGTGAAGGTCCGATCT            0.662
 5  CCTGCTAGGTCATGGTCAGCTAGTCTACAGTATG             1.51
 6  CCTCGGAGGACAGAAGGTCAGAGCGGTCCGCTTT             1.91
 7  ACTCGGAGGACAAAGGTCAGAGGTACGCCAGTGA             3.86
 8  TCAGACACGTGAAGGTAACTCAGGTACGCAGTCG            0.416
 9  GCTGCTAGGTCAACTGATGGTTAGCTAAAGCTCG             1.55
10  TCATATAGGTAAATGCTCGGTGAAAGTCCGATCT            0.631
11  ACTCGTTGGTCAGCTGAGGTCACACACAATTCGG             5.42
12  TCGAGTAAGTTAGTCGGGGCATTCAGCCAACATA           -0.346

---

Listed here: items and their measured PBM binding z-score.
Tested on: LXRa:RXRa (NR concentration 270 nM, RXRa partner concentration 90 nM)
procedure_summary: PBM binding z-score (relative to random genomic background probes); higher = stronger binding; sequences stand for … in GC…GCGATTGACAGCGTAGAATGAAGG
observed_property: PBM binding z-score

> print(dat)
                              sequence  measured.number
 1  ATATGTAGGTTACATCCGTGTCATTCAGGCTATG             4.06
 2  CCTAGCTGGTCAAGGTCACACACGCTATAGGTAC             3.91
 3  CCTAGTTAGTCAAGGTCACACACGCTATAGGTAC             4.91
 4  ATATGTAGGTTATCGGGTCATCCAGTTTGCGCAT             3.29
 5  CTAACAAGGTGAACAAGGTCGTTGATTACTATTC              1.2
 6  GGAACGACGGCATTCGAGTTGATAGCATGGCGAT           -0.773
 7  TTACCAAGGTGAAGGCCGTTGATCCCTCTGTAGA            0.227
 8  ATATGTAGGTTACATCCGGGTCATTCACGCTATG             4.66
 9  CCTACTGGGCCAAGGTCATTTATCAGTCAAAGCA                3
10  CGAACTAGGTCATCCAGGACAGTTAATACATTGA             2.59
11  ATCGAAAGGTTGAAGGTGAGTATACCCACCCGAA             1.06
12  TGATATAGGTAAATGCTAGGTGAAAGTCCGATCT            0.127
13  TAGCCTAGGTCATTGGCCAGTATACCACGCGAAC             3.34
14  CAAACTAGGTCACCGGAAGGTCAGAGTCCGCATG             4.74
15  GGACCGAGGGCAAGTTGATAGCAGAGTTTGATGG            0.322
16  CTCGAAACGTCGGTTGAGGTGAGTATACGGATAA           -0.188
17  TCTTGTAGATCAGCAGGTGAAGAAAGCTGGCCAA          -0.0408
18  TCGAGTAGGTTACCAATGCGGCATTCAGCTTTCT            0.532
19  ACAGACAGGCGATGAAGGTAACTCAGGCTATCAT           -0.309
20  AGTCAAAATTCATCTAGGTAACGTAAGATATGCT           -0.373
21  CGTCCAAGGTCAGAAGGTCAGTGAAAGCGACGTG             4.43
22  CGTCCAAGGTCAAGATCAGTGAAAGAGACTCGAA             4.97
23  ATCTCTAGGTAAGACTCAGTTCAGTTAAGAACGC            0.555
24  CTCGAACGGTCGTGCTCAGGTGAGTATACCAAAC           -0.208
25  CCTGCTAGGTCATGGTCGGCTAATCTACAGTATG              2.8
26  ATCTCTAGGTAAGATTCAGTTCAGTGAAGAACGC             0.48

These entries and their values trace back to the supplement of paper PMC6555819.
